The origin of these recorded values is PubChem BioAssay AID1963965.

Hi there, I'd appreciate the recorded viability, T/C for every entry that follows.
Tested on: 996289-038-R-J1-PDC spheroid viability;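 also: luminescence used as a proxy for viable cell amount; spheroids exposed to compounds for seven days before viability read; percent viability relative to DMSO vehicle control as 100%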
Experiment: Anticancer human tumor 996289-038-R-J1-PDC patient-derived colon adenocarcinoma cell line growth inhibition [PI3K]
Conditions: second compound 1 µM; first compound 10 µM; active compounds read low; spheroids with HUVEC and MSC
Give the value, in units of %, as a plain number.

Recall the recorded viability, T/C for CC(Cn1ccc(-c2ccc(C#N)c(Cl)c2)n1)NC(=O)c1cc(C(C)O)[nH]n1 (stereo not drawn) + CC(Nc1ncnc2nc[nH]c12)c1cc2cccc(Cl)c2c(=O)n1-c1ccccc1 with 996289-038-R-J1-PDC spheroid viability and state it.
106

And what about the compound CC1(C)CCC(CN2CCN(c3ccc(C(=O)NS(=O)(=O)c4ccc(NCC5CCOCC5)c([N+](=O)[O-])c4)c(Oc4cnc5[nH]ccc5c4)c3)CC2)=C(c2ccc(Cl)cc2)C1 + COc1c(OCCCN2CCOCC2)ccc2c3n(c(=NC(=O)c4cnc(N)nc4)nc12)CCN3 ?
6.87

And what about the compound C=CC(=O)N1CCN(c2nc(=O)n(-c3c(C)ccnc3C(C)C)c3nc(-c4c(O)cccc4F)c(F)cc23)C(C)C1 (stereo not drawn) + CC(Nc1ncnc2nc[nH]c12)c1cc2cccc(Cl)c2c(=O)n1-c1ccccc1 ?
99.6
